Target: AKT2 (Homo sapiens, UniProt P31751)
Sequence (P31751 whole entry): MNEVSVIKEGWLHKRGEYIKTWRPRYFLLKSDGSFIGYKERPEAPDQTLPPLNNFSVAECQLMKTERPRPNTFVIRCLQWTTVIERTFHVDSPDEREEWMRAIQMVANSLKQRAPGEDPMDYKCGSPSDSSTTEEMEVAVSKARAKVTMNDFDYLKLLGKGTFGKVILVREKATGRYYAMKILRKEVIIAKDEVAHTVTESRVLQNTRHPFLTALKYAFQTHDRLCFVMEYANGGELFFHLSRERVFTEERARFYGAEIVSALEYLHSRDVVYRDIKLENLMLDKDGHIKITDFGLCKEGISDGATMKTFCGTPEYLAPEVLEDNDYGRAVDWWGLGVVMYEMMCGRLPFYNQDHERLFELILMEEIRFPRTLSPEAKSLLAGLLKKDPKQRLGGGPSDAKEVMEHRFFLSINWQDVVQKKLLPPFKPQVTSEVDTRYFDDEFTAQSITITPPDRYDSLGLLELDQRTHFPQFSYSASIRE
Experiment: AKT Kinase Assay (IMAP fluorescent polarisation) vs AKT2
Conditions: activated AKT2, FAM Crosstide substrate
pIC50: −log10 of the molar value. Where a name gives a salt, the structure may show the parent alone.
Result type: pIC50

# annotated cases, reported pIC50 shown
| Compound | Subject of test | pIC50 |
| --- | --- | --- |
| COc1nc(NC(C)=O)nc2oc(-c3ccc(C4(N)CCC4)cc3)c(-c3ccccc3)c12 | AKT2 (Homo sapiens, UniProt P31751) | 6.00 to 7.00 |
| CN(CCO)c1nc2oc(-c3ccc(C4(N)CCC4)cc3)c(-c3ccccc3)c2c(=O)n1C | AKT2 (Homo sapiens, UniProt P31751) | 6.00 to 7.00 |
| COc1ncc(Br)c2oc(-c3ccc(C4(N)CCC4)cc3)c(-c3ccccc3)c12 | AKT2 (Homo sapiens, UniProt P31751) | 5.00 to 6.00 |
| NC1(c2ccc(-c3oc4ncc([N+](=O)[O-])cc4c3-c3ccccc3)cc2)CCC1 | AKT2 (Homo sapiens, UniProt P31751) | 5.00 to 6.00 |

Please report pIC50 for the following compound: "NC1(c2ccc(-c3oc4cnccc4c3I)cc2)CCC1"
5.00 to 6.00

Please report pIC50 for the following compound: "NC1(c2ccc(-c3oc4ncc(Br)cc4c3-c3ccccc3)cc2)CCC1"
< 5.00

Please report pIC50 for the following compound: "NC1(c2ccc(-c3oc4nc(NCCO)[nH]c(=O)c4c3-c3ccccc3)cc2)CCC1"
≥ 7.00

Please report pIC50 for the following compound: "NC1(c2ccc(-c3oc4nc(N5CCOCC5)ncc4c3-c3ccccc3)cc2)CCC1"
6.00 to 7.00

Please report pIC50 for the following compound: CNC(=O)CNc1nc2oc(-c3ccc(C4(N)CCC4)cc3)c(-c3ccccc3)c2c(=O)n1C [Example 60, hydrochloride]
6.00 to 7.00

Please report pIC50 for the following compound: "Cn1cnc2oc(-c3ccc(C4(N)CCC4)cc3)c(-c3ccccc3)c2c1=O"
6.00 to 7.00

Please report pIC50 for the following compound: "Cn1cc(-c2cn(C)c(=O)c3c(-c4ccccc4)c(-c4ccc(C5(N)CCC5)cc4)oc23)cn1"
6.00 to 7.00

Please report pIC50 for the following compound: "C[C@H](O)CNc1nc2oc(-c3ccc(C4(N)CCC4)cc3)c(-c3ccccc3)c2c(=O)n1C"
6.00 to 7.00
